# Test system: UACC-257
# test: NCI tumour cell line growth inhibition, 48 h
The source made the active and inactive calls. No stated cut-off is given here; in the data, active = GI50 up to about 1.1 µM and inactive = higher.
reported-metric: GI50

Result for N#CC(C#N)=CNC(=S)Nc1ccc(S(=O)(=O)Nc2nccs2)cc1 , tested on UACC-257, GI50: > 100 µM (inactive)

Result for COc1cc(-c2ccc(Nc3ccccc3C(=O)O)c(OC)c2)ccc1Nc1ccccc1C(=O)O , tested on UACC-257, GI50: 20.5 µM (inactive)

Result for OCc1c[te]c(-c2ccccc2)c1 , tested on UACC-257, GI50: 57.5 µM (inactive)

Result for Cc1ccccc1C(C#N)/C(=N/NC(=O)c1cc2ccccc2cc1O)C(=O)Nc1cccc(Cl)c1 (stereo not given) , tested on UACC-257, GI50: 20.7 µM (inactive)

Result for COC1(C)C(=O)N2C1N(C(=O)OC(C)(C)C)CC2(C)C (stereo not given) , tested on UACC-257, GI50: > 100 µM (inactive)

---

# Test system: COLO 205
# test: NCI tumour cell line growth inhibition, 48 h
Active and inactive are the calls of the source. Cut-off read from the data, not from the text of the source: active = GI50 up to about 1.1 µM and inactive = higher.
Hi there, use one of these labels in your reply, thanks! true = active, false = inactive

Would you please look over these solved cases?
# molecule, assigned-category
rows = [
    ("COc1cc(C2C(C(=O)Nc3ccccc3)=C(C)NC(C)=C2C(=O)Nc2ccccc2)ccc1O", "false"),
    ("O=C1c2cccc(O)c2C(=O)c2c(OC3OC(CO)C(O)C(O)C3O)cccc21 (stereo not drawn)", "false"),
    ("C[n+]1c(-c2ccc(/C=N/NC(=S)N/N=C/c3ccc(-c4cn5ccsc5[n+]4C)cc3)cc2)cn2ccsc21", "false"),
    ("Cc1ccc(C)n1-n1c(Cc2ccccc2)n[nH]c1=O", "false"),
    ("Cc1ccccc1C(C#N)/C(=N/NC(=O)c1cc2ccccc2cc1O)C(=O)Nc1cccc(Cl)c1 (stereo not drawn)", "false"),
    ("O=C(OCCO)C1CC2CC1C1(C2)OCCO1 (stereo not drawn)", "false"),
]

Problem: For CC(=O)Oc1ccccc1C(=O)C1c2cccc(O)c2C(=O)c2c(O)cccc21 , which call appears in the assay record?
Solution: true

Problem: For CC(C)OC1=C(CC2(C)OCCO2)C(=O)C12OCCO2 , which call appears in the assay record?
Solution: false

---

# Test system: HCC 2998
# test: NCI tumour cell line growth inhibition, 48 h
Calls of active or inactive are those of the source. Rule as the data show it: active = GI50 up to about 1.1 µM and inactive = higher. Peptide text beside a SMILES is read from it. * marks the point of attachment. Boc = CC(C)(C)OC(=O)*
Reported GI50 values for a set of molecules

// below: answered molecules
# molecule, GI50
records = [
    ("COP(=O)(OC)C(O)CC(C)C (stereo unspecified)", "> 100 µM (inactive)"),
    ("O=C(O)c1ccc([I+]c2ccccc2)cc1", "> 100 µM (inactive)"),
    ("CCCNc1[nH]c(C(C)=O)c(N)c1C(=S)Nc1ccccc1", "> 100 µM (inactive)"),
]

Input ClCCc1ccccc1CC1=NCCc2ccccc21 . Output GI50: 25.1 µM (inactive)

Input COC1=CC(C2c3cc4c(cc3[C@@H](Nc3ccc(F)cc3)C3COC(=O)[C@H]23)OCO4)=CC(=O)C1=O (stereo partly specified) . Output GI50: 16.1 µM (inactive)

Input COC(=O)C(Cc1ccccc1)NC(=O)C(CS)NC(=O)OC(C)(C)C (stereo not drawn) (Boc-Cys-Phe-OMe; configuration not given here) . Output GI50: > 100 µM (inactive)

Input CC(C)OC(=O)c1ccc(NCc2cc(O)ccc2O)cc1 . Output GI50: 11.1 µM (inactive)

Input c1ccc2c(c1)nc1n2CSCC1 . Output GI50: > 100 µM (inactive)

Input Cc1cc(C)c2nccc(NCCCN(C)C)c2c1[N+](=O)[O-] . Output GI50: 22.8 µM (inactive)

Input O=C(N/N=C/c1ccccc1)c1c(-c2cccnc2)cnc2ccccc12 . Output GI50: > 100 µM (inactive)

Input c1ccc2c(c1)CCN2CCN1CCc2ccccc21 . Output GI50: > 10 µM (inactive)

---

# Tested on: UO-31
# test: NCI tumour cell line growth inhibition, 48 h
The source made the active and inactive calls. No stated cut-off is given here; in the data, active = GI50 up to about 1.1 µM and inactive = higher.
reported-metric: GI50

// below: answered compounds
# compound-smiles, system-under-test, GI50
measured = [
    ("S=c1[nH]n2c(CCCCCCCCc3nnc4sc(=S)[nH]n34)nnc2s1", "UO-31", "> 100 µM (inactive)"),
    ("C=CCc1cc(-c2cc(CC=C)c(O)c(CNC)c2)cc(CNC)c1O", "UO-31", "12.9 µM (inactive)"),
    ("CC1=CC[C@@]2(CO)[C@@H]([C@@H]1C)[C@H]1CC[C@@H]3[C@@]4(C)CC[C@H](O)C(C)(C)[C@@H]4CC[C@@]3(C)[C@]1(C)C[C@@H]2O", "UO-31", "53.3 µM (inactive)"),
    ("O=C1CN(c2ccccc2)C(=O)CN1NCNN1CC(=O)N(c2ccccc2)CC1=O", "UO-31", "> 100 µM (inactive)"),
    ("CC(C)OC(=O)c1ccc(NCc2cc(O)ccc2O)cc1", "UO-31", "1.51 µM (inactive)"),
]

Input COc1ccc2c(c1)Cc1cc(/N=[N+](\[O-])c3ccc4c(c3)Cc3cc(OC)ccc3-4)ccc1-2 . Output GI50: 24.9 µM (inactive)

Input Cc1ccc2c(=O)c(C(=O)N(CCO)CCO)c[nH]c2n1 . Output GI50: > 100 µM (inactive)

Input Cc1c(C)c(S(=O)(=O)N(CCCN)OCCCN)c(C)c2c1OC(C)(C)C2 . Output GI50: 33.4 µM (inactive)

Input CN(CC#N)C(=O)Cc1ccc([N+](=O)[O-])cc1 . Output GI50: > 10 µM (inactive)

---

Reported GI50 values for a set of compounds
# System: EKVX
# test: NCI tumour cell line growth inhibition, 48 h
Activity calls are given as the source filed them. No stated cut-off is given here; in the data, active = GI50 up to about 1.1 µM and inactive = higher.

# compound, meas-value
records = [
    ("CC(C)=C[C@@H]1C[C@H](C)c2c(O)cc(C)c3c2C1=C(C)C(=O)C3=O", "14.3 µM (inactive)"),
]

Result for O=c1cc(CN2CCCCC2)nc2ccc3c(O)cc(CN4CCCCC4)nc3n12 , tested on EKVX, GI50: > 100 µM (inactive)

Result for COc1cccc(CC2Cc3ccccc3CC(=O)N2)c1 (stereo not given) , tested on EKVX, GI50: 35.6 µM (inactive)

Result for COc1cccc(/C=C/c2cnc3ccccc3n2)c1OC , tested on EKVX, GI50: 33 µM (inactive)

Result for CCOC(=O)C(C)c1nc2cc(F)c(F)cc2[nH]c1=O (stereo not given) , tested on EKVX, GI50: > 100 µM (inactive)

Result for COc1cc(OC(=O)c2ccccc2)cc2c1C(=O)C=CC2=O , tested on EKVX, GI50: 13.2 µM (inactive)

Result for COc1c(C(=O)c2ccc([N+](=O)[O-])cc2)cc(C(C)(C)C)cc1C(C)(C)C , tested on EKVX, GI50: 47.4 µM (inactive)

Result for CCc1nc2ccccc2c(=O)n1/N=C(\N=N\c1ccc(Cl)cc1)c1ccccc1Cl , tested on EKVX, GI50: 2.11 µM (inactive)

Result for O=S(=O)(c1ccc(I)cc1)N(c1ccccc1)S(=O)(=O)C(F)(F)C(F)(F)C(F)(F)C(F)(F)F , tested on EKVX, GI50: 40.8 µM (inactive)

Result for CC(=O)N1CN2C(=O)CCC2c2ccccc21 (stereo not given) , tested on EKVX, GI50: > 100 µM (inactive)

---

# Test system: HOP-92
# test: NCI tumour cell line growth inhibition, 48 h
Activity calls are given as the source filed them. Rule as the data show it: active = GI50 up to about 1.1 µM and inactive = higher.
reported-metric: GI50

# compound, GI50
data = [
    ("O=C(O)/C(Cl)=C(\\Cl)Nc1cccc(C(F)(F)F)c1", "9.2 µM (inactive)"),
]

Input Cc1[nH]c(=O)[nH]c(=O)c1/C=C/C(=O)NC(CO)CC(C)C (centres undefined) . Output GI50: 17.5 µM (inactive)

Input CCc1nc2ccccc2c(=O)n1/N=C(\N=N\c1ccc(Cl)cc1)c1ccccc1Cl . Output GI50: 20.2 µM (inactive)

Input CCOC(=O)C(C)c1nc2cc3cccnc3c(Cl)c2[nH]c1=O (centres undefined) . Output GI50: > 100 µM (inactive)

---

# Test system: UACC-62
# test: NCI tumour cell line growth inhibition, 48 h
The source made the active and inactive calls. Cut-off read from the data, not from the text of the source: active = GI50 up to about 1.1 µM and inactive = higher.
Hi there, use one of these labels in your reply, thanks! YES for active, NO for inactive

# compound, system-under-test, assigned-category
measured = [
    ("COC(=O)/C(C#N)=C1\\CCC(C(=O)OC)N1C (stereo not drawn)", "UACC-62", "NO"),
    ("CC(=O)/C(=C/n1c(=S)sc2ccccc21)C(=O)Nc1ccccc1C", "UACC-62", "NO"),
    ("COC(OC)[C@@H]1OC[C@H](n2ccc(=O)[nH]c2=O)[C@H]1O", "UACC-62", "NO"),
    ("CC1CC[C@]2(C(=O)O)CCC3(C)C(=C2[C@H]1C)C=CC1[C@@]2(C)CC[C@H](O)C(C)(C)C2CC[C@]13C (stereo partly drawn)", "UACC-62", "NO"),
    ("CCc1c2c([nH]c(=S)c1C#N)CCC2", "UACC-62", "NO"),
    ("CC1(C)CSCC(C)(C)C(=N/N)/C1=N\\N", "UACC-62", "NO"),
    ("Cc1c2ccccc2c(C2C3C(=O)N(c4ccc(Br)cc4)C(=O)C3ON2C(C(N)=O)c2ccccc2)c2ccccc12 (stereo not drawn)", "UACC-62", "NO"),
    ("C=CCc1cc(-c2cc(CC=C)c(O)c(CNC)c2)cc(CNC)c1O", "UACC-62", "NO"),
]

Problem: For Cc1ncc([N+](=O)[O-])n1CCNC(=O)Cn1c([N+](=O)[O-])cnc1C , which call appears in the assay record?
Solution: NO
